# Estrogen receptor (Ovis aries) (UniProt P49885+Q9TU15): RAC app values follow
property name: RAC app

1) CN(CCOc1ccc([C@H]2C[C@]3(C)[C@@H](O)CC[C@H]3[C@@H]3CCc4cc(O)ccc4[C@H]32)cc1)C(=O)CCl
6.96
2) CN(CCOc1ccc([C@H]2C[C@]3(C)[C@@H](O)CC[C@H]3[C@@H]3CCc4cc(O)ccc4[C@H]32)cc1)C(=O)CBr
4.22
3) C[C@]12C[C@H](c3ccc(OCCOS(C)(=O)=O)cc3)[C@@H]3c4ccc(O)cc4CC[C@H]3[C@@H]1CC[C@@H]2O
39.9
4) CN(CCCCCOc1ccc([C@H]2C[C@]3(C)[C@@H](O)CC[C@H]3[C@@H]3CCc4cc(O)ccc4[C@H]32)cc1)C(=O)CBr
9.7
5) C[C@]12C[C@H](c3ccc(OCCCCCNC(=O)CBr)cc3)[C@@H]3c4ccc(O)cc4CC[C@H]3[C@@H]1CC[C@@H]2O
17.1
6) CN(CC#Cc1ccc([C@H]2C[C@]3(C)[C@@H](O)CC[C@H]3[C@@H]3CCc4cc(O)ccc4[C@H]32)cc1)C(=O)CCl
19.4
7) C[C@]12C[C@H](c3ccc(OCCNC(=O)CCl)cc3)[C@@H]3c4ccc(O)cc4CC[C@H]3[C@@H]1CC[C@@H]2O
3.3
8) C[C@]12C[C@H](c3ccc(OCCCCCI)cc3)[C@@H]3c4ccc(O)cc4CC[C@H]3[C@@H]1CC[C@@H]2O
8.23
9) C[C@]12C[C@H](c3ccc(C#CCNC(=O)CCl)cc3)[C@@H]3c4ccc(O)cc4CC[C@H]3[C@@H]1CC[C@@H]2O
14.5
10) C[C@]12C[C@H](c3ccc(OCCI)cc3)[C@@H]3c4ccc(O)cc4CC[C@H]3[C@@H]1CC[C@@H]2O
10.6
